Overview of recorded MIC for various compounds
- System: Bifidobacterium pseudolongum
- method_description: Antimicrobial activity against Bifidobacterium pseudolongum ATCC 25562
- Assay type: functional
Respond with the bare value in µg/mL.

CC1(C)S[C@@H]2[C@H](NC(=O)[C@H](N)c3ccccc3)C(=O)N2[C@H]1C(=O)O; 3.9
NC[C@@H]1O[C@H](O[C@H]2[C@@H](O)[C@H](O[C@@H]3[C@@H](O)[C@H](N)C[C@H](N)[C@H]3O[C@H]3O[C@H](CN)[C@@H](O)[C@H](O)[C@H]3N)O[C@@H]2CO)[C@H](N)[C@@H](O)[C@@H]1O; 250

Next, consider the following compound.
For CN[C@@H]1[C@H](O[C@H]2[C@H](O[C@H]3[C@H](O)[C@@H](O)[C@H](N=C(N)N)[C@@H](O)[C@@H]3N=C(N)N)O[C@@H](C)[C@]2(O)C=O)O[C@@H](CO)[C@H](O)[C@H]1O on Bifidobacterium pseudolongum, measured MIC was 250

---

- System: Bifidobacterium bifidum
- method_description: Antimicrobial activity against Bifidobacterium bifidum BB12
- Format: functional
Reported MIC values are given for each entry in this list.
Just the number please, in µg/mL, no unit attached.

CC1(C)S[C@@H]2[C@H](NC(=O)Cc3ccccc3)C(=O)N2[C@H]1C(=O)O; 0.98
CC1(C)S[C@@H]2[C@H](NC(=O)[C@H](N)c3ccccc3)C(=O)N2[C@H]1C(=O)O; 31.2

Alright, here's another molecule for you.
// MIC value for NC[C@@H]1O[C@H](O[C@H]2[C@@H](O)[C@H](O[C@@H]3[C@@H](O)[C@H](N)C[C@H](N)[C@H]3O[C@H]3O[C@H](CN)[C@@H](O)[C@H](O)[C@H]3N)O[C@@H]2CO)[C@H](N)[C@@H](O)[C@@H]1O : 250

---

- System: Bifidobacterium animalis
- method_description: Antimicrobial activity against Bifidobacterium animalis ATCC 27536
- Format: functional
reported_endpoint: MIC (µg/mL)
Report the value in µg/mL with no unit label.

CN[C@H](CC(C)C)C(=O)N[C@H]1C(=O)N[C@@H](CC(N)=O)C(=O)N[C@H]2C(=O)N[C@H]3C(=O)N[C@H](C(=O)N[C@H](C(=O)O)c4cc(O)cc(O)c4-c4cc3ccc4O)[C@H](O)c3ccc(c(Cl)c3)Oc3cc2cc(c3O[C@@H]2O[C@H](CO)[C@@H](O)[C@H](O)[C@H]2O[C@H]2C[C@](C)(N)[C@H](O)[C@H](C)O2)Oc2ccc(cc2Cl)[C@H]1O; 500
CC1(C)S[C@@H]2[C@H](NC(=O)Cc3ccccc3)C(=O)N2[C@H]1C(=O)O; 0.98

Proceed to the following item.
MIC recorded for this compound, CN[C@@H]1[C@H](O[C@H]2[C@H](O[C@H]3[C@H](O)[C@@H](O)[C@H](N=C(N)N)[C@@H](O)[C@@H]3N=C(N)N)O[C@@H](C)[C@]2(O)C=O)O[C@@H](CO)[C@H](O)[C@H]1O , is 250

---

Listing of recorded MIC by entry.
- Tested on: Bifidobacterium longum
- method_description: Antimicrobial activity against Bifidobacterium longum ATCC 15708
- Type: functional
Quick note: number first, unit second.

Some molecules with recorded MIC:
NC[C@H]1O[C@H](O[C@H]2[C@H](O)[C@@H](O[C@H]3O[C@H](CO)[C@@H](O)[C@H](N)[C@H]3O)[C@H](N)C[C@@H]2N)[C@H](O)[C@@H](O)[C@@H]1O [KANAMYCIN]; 500 µg/mL
Cc1onc(-c2ccccc2Cl)c1C(=O)N[C@@H]1C(=O)N2[C@@H]1SC(C)(C)[C@@H]2C(=O)O [CLOXACILLIN]; 7.8 µg/mL
CN[C@@H]1[C@H](O[C@H]2[C@H](O[C@H]3[C@H](O)[C@@H](O)[C@H](N=C(N)N)[C@@H](O)[C@@H]3N=C(N)N)O[C@@H](C)[C@]2(O)C=O)O[C@@H](CO)[C@H](O)[C@H]1O [STREPTOMYCIN]; 250 µg/mL
CN(C)[C@@H]1C(O)=C(C(N)=O)C(=O)[C@@]2(O)C(O)=C3C(=O)c4c(O)cccc4[C@@](C)(O)[C@H]3C[C@@H]12.Cl [TETRACYCLINE HYDROCHLORIDE]; 31.2 µg/mL

MIC recorded for this molecule, NC[C@@H]1O[C@H](O[C@H]2[C@@H](O)[C@H](O[C@@H]3[C@@H](O)[C@H](N)C[C@H](N)[C@H]3O[C@H]3O[C@H](CO)[C@@H](O)[C@H](O)[C@H]3N)O[C@@H]2CO)[C@H](N)[C@@H](O)[C@@H]1O [PAROMOMYCIN] , is 250 µg/mL

MIC in this record for CC1(C)S[C@@H]2[C@H](NC(=O)Cc3ccccc3)C(=O)N2[C@H]1C(=O)O [PENICILLIN G] : 0.98 µg/mL

Consider CC[C@H]1OC(=O)[C@H](C)[C@@H](O[C@H]2C[C@@](C)(OC)[C@@H](O)[C@H](C)O2)[C@H](C)[C@@H](O[C@@H]2O[C@H](C)C[C@H](N(C)C)[C@H]2O)[C@](C)(O)C[C@@H](C)C(=O)[C@H](C)[C@@H](O)[C@]1(C)O [ERYTHROMYCIN] . Its measured MIC is 3.9 µg/mL

---

- System: Bifidobacterium longum
- method_description: Antimicrobial activity against 90 mins oxgall-stressed Bifidobacterium longum R0175 after 18 hrs
- Format: functional
In this section we review reported log10 of MIC values for a set of molecules.
Use the decimal logarithm of MIC (µg/mL).

For orientation, consider the following solved cases.
CN[C@@H]1[C@H](O[C@H]2[C@H](O[C@H]3[C@H](O)[C@@H](O)[C@H](N=C(N)N)[C@@H](O)[C@@H]3N=C(N)N)O[C@@H](C)[C@]2(O)C=O)O[C@@H](CO)[C@H](O)[C@H]1O [STREPTOMYCIN]; 2.10
NC[C@@H]1O[C@H](O[C@H]2[C@@H](O)[C@H](O[C@@H]3[C@@H](O)[C@H](N)C[C@H](N)[C@H]3O[C@H]3O[C@H](CN)[C@@H](O)[C@H](O)[C@H]3N)O[C@@H]2CO)[C@H](N)[C@@H](O)[C@@H]1O [FRAMYCETIN]; 1.80
CC1(C)S[C@@H]2[C@H](NC(=O)[C@H](N)c3ccccc3)C(=O)N2[C@H]1C(=O)O [AMPICILLIN]; -0.01
NC[C@H]1O[C@H](O[C@H]2[C@H](O)[C@@H](O[C@H]3O[C@H](CO)[C@@H](O)[C@H](N)[C@H]3O)[C@H](N)C[C@@H]2N)[C@H](O)[C@@H](O)[C@@H]1O [KANAMYCIN]; 2.70
Cc1onc(-c2ccccc2Cl)c1C(=O)N[C@@H]1C(=O)N2[C@@H]1SC(C)(C)[C@@H]2C(=O)O [CLOXACILLIN]; 2.10

Noted for CC[C@H]1OC(=O)[C@H](C)[C@@H](O[C@H]2C[C@@](C)(OC)[C@@H](O)[C@H](C)O2)[C@H](C)[C@@H](O[C@@H]2O[C@H](C)C[C@H](N(C)C)[C@H]2O)[C@](C)(O)C[C@@H](C)C(=O)[C@H](C)[C@@H](O)[C@]1(C)O [ERYTHROMYCIN] : its log10 of MIC reads 0.28

For record O=C(N[C@H](CO)[C@H](O)c1ccc([N+](=O)[O-])cc1)C(Cl)Cl [CHLORAMPHENICOL] the listed log10 of MIC is 0.28

What the record says about NC[C@@H]1O[C@H](O[C@H]2[C@@H](O)[C@H](O[C@@H]3[C@@H](O)[C@H](N)C[C@H](N)[C@H]3O[C@H]3O[C@H](CO)[C@@H](O)[C@H](O)[C@H]3N)O[C@@H]2CO)[C@H](N)[C@@H](O)[C@@H]1O [PAROMOMYCIN] : log10 of MIC is 2.10

Noted for CN(C)[C@@H]1C(O)=C(C(N)=O)C(=O)[C@@]2(O)C(O)=C3C(=O)c4c(O)cccc4[C@@](C)(O)[C@H]3C[C@@H]12.Cl [TETRACYCLINE HYDROCHLORIDE] : its log10 of MIC reads 2.10

The molecule CC1(C)S[C@@H]2[C@H](NC(=O)Cc3ccccc3)C(=O)N2[C@H]1C(=O)O [PENICILLIN G] showed log10 of MIC equal to -0.01

---

- Test system: Bifidobacterium thermophilum
- method_description: Antimicrobial activity against 60 min 1 M HCl-stressed Bifidobacterium thermophilum ATCC 25866 after 18 hrs
- Format: functional
Reported MIC values follow for various compounds
Record the value in µg/mL, omitting the unit from your answer.

NC[C@@H]1O[C@H](O[C@H]2[C@@H](O)[C@H](O[C@@H]3[C@@H](O)[C@H](N)C[C@H](N)[C@H]3O[C@H]3O[C@H](CN)[C@@H](O)[C@H](O)[C@H]3N)O[C@@H]2CO)[C@H](N)[C@@H](O)[C@@H]1O [FRAMYCETIN]; 250

Now let's try a different one.
NC[C@@H]1O[C@H](O[C@H]2[C@@H](O)[C@H](O[C@@H]3[C@@H](O)[C@H](N)C[C@H](N)[C@H]3O[C@H]3O[C@H](CO)[C@@H](O)[C@H](O)[C@H]3N)O[C@@H]2CO)[C@H](N)[C@@H](O)[C@@H]1O [PAROMOMYCIN] yielded MIC of 500
